- System: CAKI-1
- experiment notes: NCI tumour cell line growth inhibition, 48 h
Calls of active or inactive are those of the source. No stated cut-off is given here; in the data, active = GI50 up to about 1.1 µM and inactive = higher.
For each entry below, report its GI50 value.

Field: GI50. Fill in for each record below.
1. COc1ccc(COC(=O)NNC(=O)C2CSC(c3ccccc3)N2C(C)=O)cc1 (stereo not given)
2. O=C(CCc1ccc(O)c(O)c1)NCCc1cc(O)cc(OCc2ccccc2)c1
3. CC(=O)OCC(OC(C)=O)C(OC(C)=O)C(OC(C)=O)C(C=NN(C(C)=O)S(=O)(=O)c1ccc(/C=C2\NC(=O)N(C)C2=O)cc1)OC(C)=O (stereo not given)

Result:
["> 100 µM (inactive)", "12.6 µM (inactive)", "45.4 µM (inactive)"]

Field: GI50. Fill in for each record below.
1. C/C(=N\NS(=O)(=O)c1ccc(C)cc1)C(CN1CCOCC1)C(c1ccccc1)c1c(O)c2ccccc2oc1=O (stereo not given)
2. C/N=C/N(C)c1c2ccccc2nc2ccccc12

Result:
> 100 µM (inactive)
> 100 µM (inactive)

---

- Test system: SR
- experiment notes: NCI tumour cell line growth inhibition, 48 h
Calls of active or inactive are those of the source. Cut-off read from the data, not from the text of the source: active = GI50 up to about 1.1 µM and inactive = higher.
Respond using exactly one of the listed classes: YES = active, NO = inactive

Worked examples follow.
[
  {
    "molecule": "COc1ccc(Oc2nc(C#CC(C)(C)O)nc(Oc3ccc(OC)cc3)n2)cc1",
    "category": "YES"
  },
  {
    "molecule": "COc1cc(CCc2ccc(OCCN(C)C)cc2)cc(OC)c1OC",
    "category": "NO"
  },
  {
    "molecule": "CC1(C=O)CCC23COC4(CCC5C6(C)CCC(OC7OCC(OC8OC(CO)C(O)C(OC9OC(CO)C(O)C(O)C9O)C8OC8OCC(O)C(O)C8O)C(O)C7OC7OC(CO)C(O)C(O)C7O)C(C)(C)C6CCC5(C)C4(C)CC2O)C3C1 (stereo not given)",
    "category": "YES"
  },
  {
    "molecule": "CCOC1CN=C(Nc2cccc3ccccc23)S1 (stereo not given)",
    "category": "NO"
  }
]

Task: Look up the recorded call for N#[N+]c1cc2c(cc1Br)-c1ccccc1C2 in this test.
Result: YES

Task: Look up the recorded call for CCNC(=O)C#CC(=O)NCC in this test.
Result: NO

Task: Look up the recorded call for O=S(=O)(O)SCCNCCCCCC1CCCCC1 in this test.
Result: NO

Task: Look up the recorded call for O=C1C2CCCCC2C(=O)N1n1c(-c2ccccc2)n[nH]c1=O (stereo not given) in this test.
Result: NO

Task: Look up the recorded call for CC(C)(C)OC(=O)NC(Cc1ccc(OCc2ccccc2)cn1)C(=O)O (stereo not given) in this test.
Result: NO

Task: Look up the recorded call for COc1ccc(C2=Nc3ccccc3N=C(SC)C2)cc1 in this test.
Result: NO

---

- Test system: CCRF-CEM
- experiment notes: NCI tumour cell line growth inhibition, 48 h
Active and inactive are the calls of the source. No stated cut-off is given here; in the data, active = GI50 up to about 1.1 µM and inactive = higher.
Respond using exactly one of the listed classes: active, inactive

Worked examples follow.
[
  {
    "compound": "CSc1nc(C)c(Br)c(=O)n1C1OC(COC(C)=O)C(OC(C)=O)C(OC(C)=O)C1OC(C)=O (stereo unspecified)",
    "category": "inactive"
  },
  {
    "compound": "CNC(=O)c1ccccc1-[s+]1c2ccccc2c(=O)n1C (stereo unspecified)",
    "category": "inactive"
  },
  {
    "compound": "N#[N+]c1cc2c(cc1Br)-c1ccccc1C2",
    "category": "active"
  },
  {
    "compound": "CCCC(=O)n1[nH]c(=O)n(-c2ccc(Cl)cc2)c1=O",
    "category": "inactive"
  },
  {
    "compound": "Cc1c2c(C#N)nccc2c(C)c2c1c1ccccc1n2Cc1ccccc1",
    "category": "inactive"
  },
  {
    "compound": "CCOC(=O)C(=Cc1ccc(C(=O)OC)cc1)C(=O)OCC",
    "category": "inactive"
  },
  {
    "compound": "CCCCCCNC(=O)CCN(C(=O)O)S(=O)(=O)c1ccc(NC(=O)c2ccccc2)cc1",
    "category": "inactive"
  },
  {
    "compound": "Cc1ccc2nc(-c3ccc(N)c(Br)c3)sc2c1",
    "category": "inactive"
  }
]

Task: Look up the recorded call for CCC(=O)c1ccc2[nH]c3c(C)c4c(O)cc(C)nc4c(C)c3c2c1 in this test.
Result: inactive

Task: Look up the recorded call for CC12OC3(O)C4C5CC(C6C5C3C61)C42 (stereo unspecified) in this test.
Result: inactive

Task: Look up the recorded call for Clc1ccc(-n2nnc(C3=NCCCN3)c2-c2ccccc2)cc1 in this test.
Result: inactive

Task: Look up the recorded call for O=C(Cc1ccccc1)NN1C(=O)C(Cl)C1c1ccccc1 (stereo unspecified) in this test.
Result: inactive

Task: Look up the recorded call for CCOC(=O)c1sc2nc(SC)nc(Nc3ccc4c(c3)OCCCO4)c2c1N in this test.
Result: inactive

Task: Look up the recorded call for COc1ccc(Oc2nc(C#CC(C)(C)O)nc(Oc3ccc(OC)cc3)n2)cc1 in this test.
Result: inactive

Task: Look up the recorded call for S=c1[nH]nc(COc2ccc3c(c2)CCCC3)n1/N=C/c1ccc(Cl)cc1 in this test.
Result: inactive
